System: NCI-H23 lung
Assay: NCI tumour cell line growth inhibition, 48 h; in the data active = GI50 below about 0.43 µM; inactive = the rest
Possible outcomes: active, inactive

compound	assigned_label
COc1cc2c(c(OC)c1OC)-c1ccc(SC)c(=O)cc1[C@@H](NC(=O)c1ccc(F)cc1)CC2	active
CC(=O)Nc1ccc2c(c1)CN1C(=O)c3ccccc3C1=N2	inactive
CCCCCCCCCCCCNC(=O)[C@H]1CSC(c2ccsc2)N1 (stereo partly drawn)	inactive

###

Test system: MALME-3M melanoma
Test: NCI tumour cell line growth inhibition, 48 h
property: TGI

molecule	result_value
Fc1ccc(-c2cc(-c3cn[nH]c3-c3ccccn3)ccn2)cc1	> 25 µM
COc1ccc(-c2oc3cc(OC)ccc3c(=O)c2O)cc1	> 31.6 µM
Cc1ccc(S(=O)c2ccc([N+](=O)[O-])c3nonc23)cc1 (stereo unspecified)	5.12 µM
C[N+]1(CCCCN2c3ccccc3Sc3cc(N=[N+]=[N-])ccc32)CCN(C(=O)CCNC(=O)Cc2ccc(C(=O)c3ccccc3)cc2)CC1	70.8 µM
O=C(O)C(O)c1ccc(F)cc1 (stereo unspecified)	> 100 µM
O=C1CCC(CCc2nc3ccccc3[nH]2)(c2ccccc2)C(=O)N1 (stereo unspecified)	> 100 µM
O=C(O)CCSc1ncnc2nc[nH]c12	> 100 µM
CN1CCN(CCCOc2ccc3ncnc(Nc4ccc(Oc5cccc(F)c5)c(Cl)c4)c3c2)CC1	3.05 µM
O=C(O)C(CS)N=Cc1nc(-c2ccccc2)oc1O (stereo unspecified)	> 100 µM
Cc1nc2cc(Nc3nc(Nc4ccc(F)cc4)nc(-c4ccc(Cl)cc4)n3)ccc2n1Cc1ccccc1	22.4 µM
CCC(C)C(NC(=O)C(CCCC[N+](=N)N)NC(=O)C(CCCC[N+](=N)N)NC(=O)c1ccc(OC)cc1)C(=O)NC(CCCC[N+](=N)N)C(=O)N1CCCC1C(=O)NC(CCCCN)C(=O)NC(CC(C)C)C(N)=O (stereo unspecified)	> 100 µM
N=C(N)SCC(=O)O	> 100 µM
O=C(O)C12C3C4(C(=O)O)C1C1(C(=O)O)C2C3(C(=O)O)C41 (stereo unspecified)	> 100 µM
Cc1cc([C@H](C)Nc2nccc(N3C(=O)OC[C@@H]3[C@H](C)F)n2)ncc1-c1ccnc(C(F)(F)F)c1	> 100 µM
COc1ccc(-c2nc(/C=N/Nc3cc(C)nc4ccc(Br)cc34)c(C)o2)cc1	3.67 µM
CCC1(Cl)C(=O)NC(=O)N(C2CC(O)C(CO)O2)C1N=[N+]=[N-] (stereo unspecified)	> 100 µM
CC(=O)N=S(NC(=O)c1ccc(C)cc1)C(Cl)(Cl)Cl (stereo unspecified)	96 µM
Cc1ccc(S(=O)(=O)N2CCc3cc(O)c([N+](=O)[O-])cc32)cc1	> 100 µM
CC(C)(C)[Si](C)(C)OC1CCOC1(O)c1ccccn1 (stereo unspecified)	> 100 µM
O/N=C/[C@H]1COC2(CCCCC2)O1	> 100 µM
CC(=O)Nc1ccc2c(c1)CN1C(=O)c3ccccc3C1=N2	> 100 µM
NC(=O)c1ncn(C2OC(CO)C(O)C2O)c1NC(=S)NC(=O)c1ccccc1 (stereo unspecified)	> 100 µM
O=C1c2cc3c(cc2-c2c1c1cc(F)c(F)cc1c(=O)n2C[C@H](O)CO)OCO3	0.916 µM
O=C1Nc2ccc(Br)cc2C1=Nc1ccc(Cl)cc1	48.5 µM
Fc1ccc(OCc2ccc3nc(-c4ccccc4)c(Cl)nc3c2)cc1	35.9 µM
CC1=CC(O)CC(C)(C)C1/C=C/C(C)=C/C=C/C(C)=C/C=C/C=C(C)/C=C/C=C(C)/C=C/C1=C(C)CC(O)CC1(C)C (stereo unspecified)	29 µM
O=C1Cc2ccccc2CCc2ccccc21	> 100 µM
COc1ccc2c(c1)-c1nc(=S)n(CCN(C)C)c3ccc([N+](=O)[O-])c(c13)N2	2.49 µM
CC(=O)OC1Oc2cc(C)c(C)cc2-c2oc(=O)c(-c3ccccc3)cc21 (stereo unspecified)	> 34.7 µM
COc1ccc(-c2nn3ncccc3c2-c2ccnc(Nc3cccc(C(F)(F)F)c3)n2)cc1	> 25 µM
CCn1c(-c2nonc2N)nc2c(C#CC(C)(C)O)ncc(OC[C@@H]3CCCN3)c21	> 25 µM
CNc1ccc(N=Nc2cccc3ncccc23)cc1	> 100 µM
CCOC(=O)C(=Cc1c(-c2ccccc2)[nH]c2ccccc12)C(=O)OCC	22.3 µM
CCOC(=O)c1cc(C(=O)O)c(=O)n2c1[nH]c1ccccc12	> 100 µM
CCCCCCCCCCCCNC(=O)[C@H]1CSC(c2ccsc2)N1 (stereo partly specified)	2.12 µM
CC(C)NC(=O)OCc1c(COC(=O)NC(C)C)n(C)c2c1ccc1cc(Cl)c(Cl)cc12	22.7 µM
